Reference for the values: the RNAGym collection of RNA variant scans (doi:10.1101/gr.219683.116)

Field: exon inclusion enrichment index. Provide a value for each of the variants that follow.
B1: mRNA-splicing (parent)
chain: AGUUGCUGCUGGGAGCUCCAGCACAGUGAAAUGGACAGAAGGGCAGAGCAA

Variants of: B1
experiment.summary: exon inclusion enrichment index; higher = more inclusion; WT1 exon 5 minigene, HEK293

# annotated cases, reported exon inclusion enrichment index shown
{"sequence.record": "AGUUAUAUAUGGGAGCUCCAGCACAGUGAAAUGGACAGGCGGGCAGAGCAA [G5A C6U U7A G8U C9A A39G A40C]", "exon inclusion enrichment index": 0.102}
{"sequence.record": "AGUUCUUCUCGGGAGCUCCAGCACAGUGAAAUGGACAGAAGGGGCGAGCAA [G5C C6U G8C C9U U10C C44G A45C]", "exon inclusion enrichment index": 3.14}
{"sequence.record": "AGUUCGCGCCGGGAGCUCCAGCACAGUGAAAUGGACAGAAGGGGGGAGCAA [G5C C6G U7C U10C C44G A45G]", "exon inclusion enrichment index": 1.17}
{"sequence.record": "AGUUCACACAGGGAGCUGCAGCACAGUGAAAUGGACAGAAGGGCAGAGCAA [G5C C6A U7C G8A U10A C18G]", "exon inclusion enrichment index": 0.097}
{"sequence.record": "AGUUAGUCUCGGGAGCUCCAGCACAGUGAAAUGGACAGAAGGGCAGAGCAA [G5A C6G G8C C9U U10C]", "exon inclusion enrichment index": 0.0763}

Return reported exon inclusion enrichment index values for all items listed beneath this line.
1. AGUUCUUCUCGGGAGCUCCAGCACAGUGAAAUGCCCAGAAGGGCAGAGCAA [G5C C6U G8C C9U U10C G34C A35C]
2. AGUUAUAUAUGGGAGCUCCAGCACAGUGAAAUGGAGUGAAGGGCAGAGCAA [G5A C6U U7A G8U C9A C36G A37U]
3. AGUUGACGACGGGAGCUCCAGCACAGUGAAAUGGAUAGAAGGGCAGAGCAA [C6A U7C C9A U10C C36U]
4. AGUUACCACCGGGAGCUCCAGCACAGUGAAAUGGACUUAAGGGCAGAGCAA [G5A U7C G8A U10C A37U G38U]
5. AGUUAGGGAUGGGAGCUCCAGCACAGUGAAAUGGGAAGAAGGGCAGAGCAA [G5A C6G U7G C9A A35G C36A]

a:
1: 0.141; 2: 0.0196; 3: 1.34; 4: 0.601; 5: 0.00181

Hi there! I need exon inclusion enrichment index for each item below, if you can.
1. AGUUACCACCGGGAGCUCCGCCACAGUGAAAUGGACAGAAGGGCAGAGCAA [G5A U7C G8A U10C A20G G21C]
2. AGUUGAAGAAGGGAGCUCCAGCACAGUGAAAUGGACAAGAGGGCAGAGCAA [C6A U7A C9A U10A G38A A39G]
3. AGUUAUAUAUGGGAGCUCCAGCCGAGUGAAAUGGACAGAAGGGCAGAGCAA [G5A C6U U7A G8U C9A A23C C24G]
4. AGUUGAAGAAGGGAGCUCCAGUGCAGUGAAAUGGACAGAAGGGCAGAGCAA [C6A U7A C9A U10A C22U A23G]

a:
[2.62, 0.862, 0.241, 0.694]

For the 6 variants below, give their exon inclusion enrichment index values.
1. AGUUAGGGAUGGGAGCUCCAGCACAGUGCGAUGGACAGAAGGGCAGAGCAA [G5A C6G U7G C9A A29C A30G]
2. AGUUACCACCGGGAGCUCCAGCACAGUGAAAUGGACAAAAGGGCAGAGCAA [G5A U7C G8A U10C G38A]
3. AGUUGCUGCUGGGAGCUCCAGCACACGGAAAUGGACAGAAGGGCAGAGCAA [G26C U27G]
4. AGUUAGGGAUGGGAGCUCCAGCACAGUCAAAUGGACAGAAGGGCAGAGCAA [G5A C6G U7G C9A G28C]
5. AGUUGAAGAAGGGAGCUUGAGCACAGUGAAAUGGACAGAAGGGCAGAGCAA [C6A U7A C9A U10A C18U C19G]
6. AGUAAUUCUCGGGAGCUCCAGCACAGUGAAAUGGACAGAAGGGCAGAGCAA [U4A G5A C6U G8C C9U U10C]

a:
[0.0167, 1.25, 0.615, 0.00255, 0.119, 0.574]

State recorded exon inclusion enrichment index for all listed variants.
1. AGUUAUAUAUGGGAGCUCCAGCACAGUGAAAUGGACAGAAGGGCCGAGCAA [G5A C6U U7A G8U C9A A45C]
2. AGUUAUAUAUGGGAGGGCCAGCACAGUGAAAUGGACAGAAGGGCAGAGCAA [G5A C6U U7A G8U C9A C16G U17G]
3. AGUUGACGACGGGAGCUCCAGCACAGUGUCAUGGACAGAAGGGCAGAGCAA [C6A U7C C9A U10C A29U A30C]
4. AGUUGCUGCUGGGAGCUCCAGCACUAUGAAAUGGACAGAAGGGCAGAGCAA [A25U G26A]
5. AGUUGCUGCUGGGAACUCCAGCACAGUGAAAUGGACAGAAGGGCAGAGCAA [G15A]
6. AGUUACCACCGGGAGCUCCAGCACAGUGUGAUGGACAGAAGGGCAGAGCAA [G5A U7C G8A U10C A29U A30G]
7. AGUUUCUUUUGGGAGCUCCAGCACAGUGAAAUGGACAGAAGGGUUGAGCAA [G5U G8U C9U C44U A45U]

a:
1: 0.106; 2: 0.00515; 3: 2.97; 4: 0.136; 5: 0.048; 6: 2.78; 7: 0.0921
